System: Sprague-Dawley rats
Assay: Bleeding side effect (tail bleeding time) after single oral administration
Assay type: in vivo
Details: rat, 100 μM (so in the source), tail cut 1 hour after administration
quantity kind: Bleeding time (min)
Use min as the unit, but write only the number.

compound="CC(=O)Oc1ccccc1C(=O)O [Aspirin, aspirin, reference compound]" val=15.1
compound=O=C(c1cc(O)ccc1O)N1CCc2sccc2C1 val=7.7
compound=COc1cc(C(=O)Oc2c(C)occc2=O)ccc1O val=6.3

Field Bleeding time (entry O=C(c1ccc(O)c(O)c1)N1CCc2sccc2C1 ) reads 6.5

Field Bleeding time (entry CCc1occc(=O)c1OC(=O)c1ccc(O)c(OC)c1 ) reads 7.2

Field Bleeding time (entry COc1cc(C(=O)N2CCc3sccc3C2)ccc1O ) reads 6.5

Field Bleeding time (entry COc1ccc(NC(=O)c2ccc(O)c(OC)c2)c([N+](=O)[O-])c1 ) reads 6.2

----------
A collection of molecules and their measured Time of thrombogenesis
Tested on: iron chloride (FeCl3)-induced thrombogenesis model
Test: Arterial thrombosis model, FeCl3-induced carotid artery thrombogenesis
Type: in vivo, Sprague-Dawley rats
Settings: rat, 25 mg/kg oral, FeCl3 applied 60 min after administration; occlusion time
Experimental: Vehicle (DMSO: Tween 80: DW=1:2:17) or candidate substance (25 mg/kg) was orally administered to overnight-fasted male Sprague-Dawley rats (250 to 300 g). 30 minutes after administration, the rats were anesthetized by intraperitoneal injection of urethane (1.25 g/kg). […] The filter paper was removed after 10 minutes, and the change of blood flow due to thrombus formation in the carotid artery was measured for 60 minutes after the time point of removal. […]
Use s as the unit, but write only the number.

As a guide, the following entries are already answered.
structure_string=CCc1occc(=O)c1OC(=O)c1ccc(O)c(OC)c1 unit_abbrev=s val=752
structure_string=O=C(c1ccc(O)c(O)c1)N1CCc2sccc2C1 unit_abbrev=s val=936
structure_string=O=C(c1cc(O)ccc1O)N1CCc2sccc2C1 unit_abbrev=s val=2122
structure_string=COc1cc(C(=O)Oc2c(C)occc2=O)ccc1O unit_abbrev=s val=615

Field Time of thrombogenesis (entry O=C(c1cc(O)ccc1O)N1CCC(c2noc3ccc(F)cc23)CC1 ) reads 674

Field Time of thrombogenesis (entry COc1ccc(NC(=O)c2ccc(O)c(OC)c2)c([N+](=O)[O-])c1 ) reads 816

Field Time of thrombogenesis (entry COc1cc(C(=O)N2CCc3sccc3C2)ccc1O ) reads 665

----------
Test system: human platelets
Experiment: Cytotoxicity in human platelets (LDH leakage)
Format: cell-based
Conditions: 3 min, 250 μM
quantity kind: LDH leakage (%, Mean ± SEM) (%)
Use % as the unit, but write only the number.

As a guide, the following entries are already answered.
structure_string=COc1ccc(NC(=O)c2ccc(O)c(OC)c2)c([N+](=O)[O-])c1 target_or_test_system="human platelets" unit_abbrev=% val=3.1
structure_string=O=C(c1ccc(O)c(O)c1)N1CCc2sccc2C1 target_or_test_system="human platelets" unit_abbrev=% val=2.7
structure_string=COc1cc(C(=O)Oc2c(C)occc2=O)ccc1O target_or_test_system="human platelets" unit_abbrev=% val=4.2
structure_string=O=C(c1cc(O)ccc1O)N1CCc2sccc2C1 target_or_test_system="human platelets" unit_abbrev=% val=3.5
structure_string=COc1cc(C(=O)N2CCc3sccc3C2)ccc1O target_or_test_system="human platelets" unit_abbrev=% val=3.6
structure_string=CCc1occc(=O)c1OC(=O)c1ccc(O)c(OC)c1 target_or_test_system="human platelets" unit_abbrev=% val=4.0

# input for lookup
Field LDH leakage (%, Mean ± SEM) (entry O=C(c1cc(O)ccc1O)N1CCC(c2noc3ccc(F)cc23)CC1 ) reads 3.2

----------
System: human vascular endothelial cells (EA.hy926)
Experiment: Cytotoxicity in EA.hy926 cell line (MTT assay)
Assay type: cell-based
Details: EA.hy926, 25 μM, 24 hours
quantity kind: Cell viability (%)
Use % as the unit, but write only the number.

structure_string=COc1cc(C(=O)N2CCc3sccc3C2)ccc1O target_or_test_system="human vascular endothelial cells (EA.hy926)" quantity_kind="Cell viability (%)" val=95.1
structure_string=O=C(c1cc(O)ccc1O)N1CCC(c2noc3ccc(F)cc23)CC1 target_or_test_system="human vascular endothelial cells (EA.hy926)" quantity_kind="Cell viability (%)" val=104.3
structure_string=COc1cc(C(=O)Oc2c(C)occc2=O)ccc1O target_or_test_system="human vascular endothelial cells (EA.hy926)" quantity_kind="Cell viability (%)" val=99.6
structure_string=COc1ccc(NC(=O)c2ccc(O)c(OC)c2)c([N+](=O)[O-])c1 target_or_test_system="human vascular endothelial cells (EA.hy926)" quantity_kind="Cell viability (%)" val=100.8
structure_string=O=C(c1ccc(O)c(O)c1)N1CCc2sccc2C1 target_or_test_system="human vascular endothelial cells (EA.hy926)" quantity_kind="Cell viability (%)" val=92.2
structure_string=CCc1occc(=O)c1OC(=O)c1ccc(O)c(OC)c1 target_or_test_system="human vascular endothelial cells (EA.hy926)" quantity_kind="Cell viability (%)" val=100.1

# input for lookup
Field Cell viability (%) (entry O=C(c1cc(O)ccc1O)N1CCc2sccc2C1 ) reads 99.7

----------
A collection of compounds and their measured inhibition at 25 µM
Tested on: Human Washed Platelets (WP)
Assay: Shear stress-induced platelet aggregation inhibition in human washed platelets (WP)
Format: cell-based
Details: Platelet; human WP, 25 μM; read-out: Degree of inhibition (%, Mean ± SEM)
Show the value, then the unit it is measured in.

As a guide, the following entries are already answered.
compound="COc1cc(C(=O)Oc2c(C)occc2=O)ccc1O [Example 14]" val=27%
compound="COc1ccc(NC(=O)c2ccc(O)c(OC)c2)c([N+](=O)[O-])c1 [Example 15]" val=26%
compound="COc1cc(C(=O)N2CCc3sccc3C2)ccc1O [Example 12]" val=30%
compound="O=C(c1cc(O)ccc1O)N1CCc2sccc2C1 [Example 20]" val=42%
compound="CCc1occc(=O)c1OC(=O)c1ccc(O)c(OC)c1 [Example 13]" val=29%

# input for lookup
Field inhibition at 25 µM (Human Washed Platelets (WP)), entry O=C(c1ccc(O)c(O)c1)N1CCc2sccc2C1 [Example 1] : 23%

----------
Test system: Human Platelet Rich Plasma (PRP)
Assay: Shear stress-induced platelet aggregation inhibition in human platelet rich plasma (PRP), cone-plate viscometer
Type: cell-based
Settings: Homo sapiens, Platelet, Table 1 summary bins; concentration and matrix not given; read-out: Inhibitory effect of shear stress-induced platelet aggregation
quantity kind: inhibition at 25 µM

As a guide, the following entries are already answered.
compound="O=C(c1cc(O)ccc1O)N1CCC(c2noc3ccc(F)cc23)CC1 [Example 23]" val="20 to 30%"
compound="O=C(NCC1CN(Cc2ccc(F)cc2)CCO1)c1cc(O)ccc1O (stereo not drawn) [Example 22]" val="≥ 30%"
compound="O=C(NCCCCCCCCCNC(=O)c1ccc(O)c(O)c1)c1ccc(O)c(O)c1 [Example 5]" val="20 to 30%"
compound="O=C(NCCc1cccs1)c1cc(O)ccc1O [Example 25]" val="20 to 30%"
compound="COc1cc(C(=O)N2CCc3sccc3C2)ccc1O [Example 12]" val="20 to 30%"

# input for lookup
Field inhibition at 25 µM (entry COc1cc(C(=O)NCc2c(CO)cnc(C)c2O)ccc1O [Example 19] ) reads 20 to 30%

----------
Test system: Sprague-Dawley rats
Test: Bleeding side effect (tail bleeding time) after single oral administration
Format: in vivo
Settings: rat, 25 μM (so in the source), tail cut 1 hour after administration
Procedure: Male Sprague-Dawley rats (250 to 300 g) were fasted overnight and then were orally administered with the candidate substances at each concentration. After 1 hour, the rats were anesthetized by intraperitoneal injection of urethane (1.25 g/kg). The 3 mm portion of the tail tip of the rats was cut and carefully wiped every 30 seconds. Bleeding time was measured in […] until no more blood was drawn, and when the bleeding lasted longer than 30 minutes, the bleeding time was recorded as 30 minutes.
A collection of compounds and their measured Bleeding time
Use min as the unit, but write only the number.

As a guide, the following entries are already answered.
compound="COc1cc(C(=O)N2CCc3sccc3C2)ccc1O [Example 12]" target_or_test_system="Sprague-Dawley rats" unit_abbrev=min val=6.3
compound="COc1cc(C(=O)Oc2c(C)occc2=O)ccc1O [Example 14]" target_or_test_system="Sprague-Dawley rats" unit_abbrev=min val=6.7
compound="O=C(c1cc(O)ccc1O)N1CCc2sccc2C1 [Example 20]" target_or_test_system="Sprague-Dawley rats" unit_abbrev=min val=6.7
compound="CCc1occc(=O)c1OC(=O)c1ccc(O)c(OC)c1 [Example 13]" target_or_test_system="Sprague-Dawley rats" unit_abbrev=min val=6.5
compound="COc1ccc(NC(=O)c2ccc(O)c(OC)c2)c([N+](=O)[O-])c1 [Example 15]" target_or_test_system="Sprague-Dawley rats" unit_abbrev=min val=7.3
compound="COC(=O)[C@H](c1ccccc1Cl)N1CCc2sccc2C1 [Clopidogrel, clopidogrel, reference compound]" target_or_test_system="Sprague-Dawley rats" unit_abbrev=min val=26.8
compound="CC(=O)Oc1ccccc1C(=O)O [Aspirin, aspirin, reference compound]" target_or_test_system="Sprague-Dawley rats" unit_abbrev=min val=9.5

# input for lookup
Field Bleeding time (entry O=C(c1ccc(O)c(O)c1)N1CCc2sccc2C1 [Example 1] ) reads 6.0
